Values compiled from paper PMC3480348.

# System: H1299 cells
# assayRemarks: 3-day WST-8 cell growth inhibition assay, H1299 (p53 null)
# Type: cell-based, human
# recordedConditions: Homo sapiens, NCI-H1299, calculated from EC50 and Hill slope
Here the recorded EC90 is given for each entry.

Example cases with answers are listed next.
compound="CCC(Sc1nnc2c3ccccc3n(CCO)c2n1)C(=O)N1c2ccccc2Cc2ccccc21 (stereo not shown) [Compound 37]" valuetype=EC90 measurement="58.9 µM"
compound="CCC(Sc1nnc2c3ccccc3n(C(=O)c3ccccc3)c2n1)C(=O)N1c2ccccc2Sc2ccccc21 (stereo not shown) [Compound 21]" valuetype=EC90 measurement="82.3 µM"

input: Specify measured EC90 for CCC(Sc1nnc2c(n1)[nH]c1ccccc12)C(=O)N1c2ccccc2Sc2ccccc21 (stereo not shown) [INZ] .
output: 217 µM

input: Identify measured EC90 associated with CCC(Sc1nnc2c(n1)[nH]c1cc(C)ccc12)C(=O)N1c2ccccc2Sc2ccccc21 (stereo not shown) [Compound 19]
output: 173 µM

* * *

Listing of recorded EC90 by entry.
# Test system: HCT116^−/− cells
# assayRemarks: 3-day WST-8 cell growth inhibition assay, HCT116^−/− (p53 null)
# Assay type: cell-based
# recordedConditions: Homo sapiens, HCT-116, calculated from EC50 and Hill slope
Please respond with the number in µM and leave the unit unwritten.

compound="CCC(Sc1nnc2c3ccccc3n(CCO)c2n1)C(=O)N1c2ccccc2Cc2ccccc21 (stereo not shown)" measurement=91.7

input: Assign EC90 to the following record: CCC(Sc1nnc2c(n1)[nH]c1ccccc12)C(=O)N1c2ccccc2Sc2ccccc21 (stereo not shown)
output: 213
